Reference source for all entries: the supplement of paper PMC9135407

System: primary human hepatic stellate cells (donor 1)
procedure-summary: scaled lipid accumulation score (0 = DMSO-like, 1 = nortriptyline-like); higher = stronger HSC inactivation (lipid re-accumulation), active = hit call of the paper
cond: library stock concentration: 10 mM; 48 h
Counter-ions that a name gives are not always drawn. Among all 5,800 compounds or so, about 620 (11%) showed activity.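 Rule for the calls: active = score above a cut-off or among the top three wells of a plate; in these data no inactive exceeds 0.85.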 The sample holds actives, similar compounds and a random draw of the others, so the mix is not that of the screen.
Returns: one label drawn from true (1) for active, false (0) for inactive

>  <compound>
Cc1cc(C(=O)O)sc1C(N)C(=O)O (stereo not given)

>  <test-system>
primary human hepatic stellate cells (donor 1)

>  <label>
false (0)

$$$$
>  <compound>
C[n+]1ccccc1C=NO [Pralidoxime mesylate]

>  <test-system>
primary human hepatic stellate cells (donor 1)

>  <label>
false (0)

$$$$
>  <compound>
COc1c/c(=C2\C=c3ccccc3=N2)[nH]/c1=C\c1[nH]c(C)cc1C [Obatoclax Mesylate (GX15-070)]

>  <test-system>
primary human hepatic stellate cells (donor 1)

>  <label>
false (0)

$$$$

In this assay, the call recorded for `CC(C)N1Cc2cc(S(C)(=O)=O)ccc2N(CCN2CC=C(c3c[nH]c4cc(F)ccc34)CC2)S1(=O)=O` was what?
false (0)

In this assay, the call recorded for `O=S(=O)(c1ccccc1)c1cnc2c(N3CCNCC3)cccc2c1` was what?
true (1)

In this assay, the call recorded for CNCCCCOc1ccccc1Cc1ccccc1.Cl [Bifemelane hydrochloride] was what?
true (1)

In this assay, the call recorded for `Oc1cc(O)c(Cl)cn1` was what?
false (0)

In this assay, the call recorded for `CNCCCCOc1ccccc1Cc1ccccc1` was what?
true (1)

In this assay, the call recorded for `O=C(c1ccc2c(c1)OCCO2)N1CCCCC1` was what?
false (0)

In this assay, the call recorded for `CC(=O)[C@H]1CC[C@H]2[C@@H]3CC=C4C[C@@H](O)CC[C@]4(C)[C@H]3CC[C@]12C` was what?
false (0)
